assay.target: T1, human TGFβ3 (human, UniProt P10600 301-412)
T1 sequence: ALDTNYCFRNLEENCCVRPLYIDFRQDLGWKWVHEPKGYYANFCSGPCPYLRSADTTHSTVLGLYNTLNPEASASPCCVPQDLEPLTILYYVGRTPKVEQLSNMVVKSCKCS
test.protocol: Biacore off-rate vs wt GC1008, 50 nM
value.kind: kd var/kd wt
Field format: numeric only.

Answer with reported kd var/kd wt of N59R (antibody, V domains shown, GC1008 IgG4 variant) VH: QVQLVQSGAEVKKPGSSVKVSCKASGYTFSSNVISWVRQAPGQGLEWMGGVIPIVDIARYAQRFKGRVTITADESTSTTYMELSSLRSEDTAVYYCASTLGLVLDAMDYWGQGTLVTVSS VL: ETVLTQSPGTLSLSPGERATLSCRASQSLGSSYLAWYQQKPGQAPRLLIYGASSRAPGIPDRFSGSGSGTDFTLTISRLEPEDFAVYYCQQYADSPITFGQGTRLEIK
1.5

Please give the documented kd var/kd wt of I52L (antibody, V domains shown, GC1008 IgG4 variant) VH: QVQLVQSGAEVKKPGSSVKVSCKASGYTFSSNVISWVRQAPGQGLEWMGGVLPIVDIANYAQRFKGRVTITADESTSTTYMELSSLRSEDTAVYYCASTLGLVLDAMDYWGQGTLVTVSS VL: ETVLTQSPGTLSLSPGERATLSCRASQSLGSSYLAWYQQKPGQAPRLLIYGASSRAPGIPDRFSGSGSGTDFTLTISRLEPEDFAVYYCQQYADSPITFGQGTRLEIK
1.6

Give a short answer stating reported kd var/kd wt for I52F (antibody, V domains shown, GC1008 IgG4 variant) VH: QVQLVQSGAEVKKPGSSVKVSCKASGYTFSSNVISWVRQAPGQGLEWMGGVFPIVDIANYAQRFKGRVTITADESTSTTYMELSSLRSEDTAVYYCASTLGLVLDAMDYWGQGTLVTVSS VL: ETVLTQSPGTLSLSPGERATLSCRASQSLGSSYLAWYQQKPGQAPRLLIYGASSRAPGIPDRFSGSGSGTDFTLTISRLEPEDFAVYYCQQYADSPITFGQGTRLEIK .
2
